Target: CYP3A4 (Homo sapiens, UniProt P08684)
Construct: from tissue; host or cells: liver microsomes
Sequence (P08684 whole entry): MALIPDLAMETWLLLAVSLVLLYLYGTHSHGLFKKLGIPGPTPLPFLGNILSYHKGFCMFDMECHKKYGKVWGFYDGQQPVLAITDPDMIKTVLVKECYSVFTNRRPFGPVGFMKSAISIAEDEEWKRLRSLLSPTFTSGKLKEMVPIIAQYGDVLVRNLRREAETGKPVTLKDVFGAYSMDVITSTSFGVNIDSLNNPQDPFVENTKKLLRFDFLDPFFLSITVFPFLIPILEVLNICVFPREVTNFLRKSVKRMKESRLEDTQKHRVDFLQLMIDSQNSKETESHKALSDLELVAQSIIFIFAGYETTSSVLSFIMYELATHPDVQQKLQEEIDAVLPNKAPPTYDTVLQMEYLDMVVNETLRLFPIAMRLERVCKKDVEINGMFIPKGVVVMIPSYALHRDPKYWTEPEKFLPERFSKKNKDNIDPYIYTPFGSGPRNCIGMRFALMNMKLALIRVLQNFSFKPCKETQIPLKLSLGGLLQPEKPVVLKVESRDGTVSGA
Experiment: Inhibition of CYP enzyme (CYP3A4, midazolam substrate, liver microsomes)
Format: in vitro ADME
Conditions: human, pH 7.4, midazolam (M) as probe substrate
Task for the reader: assign each of the following compounds its reported inhibition at 5 min, 1 μM.
Numbers only, in %.

Solved cases (6 shown):
{"columns": ["test-smiles", "target-or-system", "inhibition at 5 min, 1 μM (%)"],
 "data": [
  ["COCCOCCN(C)C(=O)Oc1ccc2c(c1)[C@@]1(C)CCCCC[C@@H](C2)[C@@H]1N", "CYP3A4 (Homo sapiens, UniProt P08684)", 49.5],
  ["C[C@@]12CCCCC[C@@H](Cc3ccc(OC(=O)Nc4ccc(F)cc4)cc31)[C@@H]2N", "CYP3A4 (Homo sapiens, UniProt P08684)", 88.1],
  ["CN1CCN(C(=O)Oc2ccc3c(c2)[C@@]2(C)CCCCC[C@@H](C3)[C@@H]2N)CC1", "CYP3A4 (Homo sapiens, UniProt P08684)", 19.8],
  ["C[C@@]12CCCCC[C@@H](Cc3ccc(OC(=O)N4CCC(N5CCCCC5)CC4)cc31)[C@@H]2N", "CYP3A4 (Homo sapiens, UniProt P08684)", 7.28],
  ["C[C@@]12CCCCC[C@@H](Cc3ccc(OC(=O)Nc4ccc(O)cc4)cc31)[C@@H]2N", "CYP3A4 (Homo sapiens, UniProt P08684)", 89.2],
  ["COCCCNC(=O)Oc1ccc2c(c1)[C@@]1(C)CCCCC[C@@H](C2)[C@@H]1N", "CYP3A4 (Homo sapiens, UniProt P08684)", 33.6]
]}

Fill blank: measured inhibition at 5 min, 1 μM of the compound CN(CC(=O)O)C(=O)Oc1ccc2c(c1)[C@@]1(C)CCCCC[C@@H](C2)[C@@H]1N is ____.
1.6
